- procedure_summary: Plasma concentrations of TQS-168 and TQS-621 after single oral dose 50 mg/kg in mice, three formulations
- Format: in vivo
- experimental_parameters: male, C57BL/6, mouse, plasma, po, 50 mg/kg, mice, 50 mg/kg p.o., Group 2 (solution, PEG 400/Kleptose/water), 1 hr, individual mouse; read-out: Calculated Concentration in plasma
property_label: concentration at 1 h (ng/mL)

> print(dat)
                 smiles.representation  value.observed
1  CC(C)(C)c1ccc(-c2nc3ccccc3[nH]2)cc1            1520

* * *

- procedure_summary: Plasma concentrations of TQS-168 and TQS-621 after single oral dose 50 mg/kg in mice, three formulations
- Format: in vivo
- experimental_parameters: male, C57BL/6, mouse, plasma, po, 50 mg/kg, mice, 50 mg/kg p.o., Group 2 (solution, PEG 400/Kleptose/water), 0.5 hr, mean; read-out: Calculated Concentration in plasma
property_label: concentration at 0.5 h (ng/mL)

> print(dat)
                                   compound          property.label  value.observed
1  CC(C)(C)c1ccc(-c2nc3ccccc3[nH]2)cc1 [TQS-168, 2-(4-tert-butylphenyl)-1H-benzimidazole]  concentration at 0.5 h            1960

* * *

- procedure_summary: Tissue concentrations (plasma, brain, liver) after single oral dose 25 mg/kg in mice
- Assay type: in vivo
- experimental_parameters: male, C57BL6/J, mouse, plasma, po, 25 mg/kg, 25 mg/kg p.o., 240.0 minutes, average, read-out: concentration in plasma
property_label: concentration at 240 min (ng/mL)

> print(dat)
                 smiles.representation  value.observed
1  CC(C)(C)c1ccc(-c2nc3ccccc3[nH]2)cc1            59.8

* * *

- procedure_summary: clinical
- experimental_parameters: male, human, in vivo, 120 mg, Tmax
property_label: Tmax

> print(dat)
                    smiles.representation  property.label  value.observed
1  CC(C)(C)c1ccc(-c2nc3cc(O)ccc3[nH]2)cc1            Tmax           1.5 h

* * *

- procedure_summary: Tissue concentrations (plasma, brain, liver) after single oral dose 25 mg/kg in mice
- Assay type: in vivo
- experimental_parameters: male, C57BL6/J, mouse, brain, po, 25 mg/kg, 25 mg/kg p.o., 2880.0 minutes, average, read-out: concentration in brain
property_label: concentration at 2880 min (ng/mL)

> print(dat)
                 smiles.representation             property.label  value.observed
1  CC(C)(C)c1ccc(-c2nc3ccccc3[nH]2)cc1  concentration at 2880 min             1.5

* * *

- procedure_summary: Phase 1 multiple dose trial, plasma pharmacokinetics (Part 2)
- experimental_parameters: male, human, in vivo, po, 300 mg, Tmax (median), Regimen K, 300 mg TQS-168 SDD powder for oral suspension QD, fed; Day 1; plasma; median
property_label: Tmax

> print(dat)
                                   compound  value.observed
1  CC(C)(C)c1ccc(-c2nc3ccccc3[nH]2)cc1 [TQS-168, 2-(4-tert-butylphenyl)-1H-benzimidazole]             2 h

* * *

- procedure_summary: Plasma concentrations of TQS-168 and TQS-621 after single oral dose 50 mg/kg in mice, three formulations
- Format: in vivo
- experimental_parameters: male, C57BL/6, mouse, plasma, po, 50 mg/kg, mice plasma, 50 mg/kg p.o., Group 1 (suspension); read-out: Cmax
property_label: Cmax

> print(dat)
                                   compound  property.label  value.observed
1  CC(C)(C)c1ccc(-c2nc3ccccc3[nH]2)cc1 [TQS-168, 2-(4-tert-butylphenyl)-1H-benzimidazole]            Cmax          4.5 µM

* * *

- procedure_summary: Phase 1 single ascending dose (SAD) trial, plasma pharmacokinetics (Part 1)
- experimental_parameters: male, human, in vivo, po, 270 mg, T1/2, human plasma; Regimen H: 270 mg TQS-168 SDD oral suspension, fasted, single dose; geometric mean
property_label: half-life (h)

> print(dat)
                 smiles.representation  property.label  readout.unit  value.observed
1  CC(C)(C)c1ccc(-c2nc3ccccc3[nH]2)cc1       half-life             h            10.4

* * *

- procedure_summary: Phase 1 single ascending dose (SAD) trial, plasma pharmacokinetics (Part 1)
- experimental_parameters: male, human, in vivo, po, 180 mg, Tmax, human plasma; Regimen B: 180 mg TQS-168 MC oral suspension, fasted, single dose; median
property_label: Tmax (h)

> print(dat)
                                   compound  readout.unit  value.observed
1  CC(C)(C)c1ccc(-c2nc3ccccc3[nH]2)cc1 [TQS-168, 2-(4-tert-butylphenyl)-1H-benzimidazole]             h               1

* * *

- procedure_summary: Plasma concentrations of TQS-168 and TQS-621 after single oral dose 50 mg/kg in mice, three formulations
- Type: in vivo
- experimental_parameters: male, C57BL/6, mouse, plasma, po, 50 mg/kg, mice, 50 mg/kg p.o., Group 2 (solution, PEG 400/Kleptose/water), 4 hr, individual mouse; read-out: Calculated Concentration in plasma
- Experimental: In a second experiment, mice were administered 50 mg/kg TQS-168 by oral gavage. For Group 1, TQS-168 was prepared at a concentration of 5.0 mg/mL in a suspension with […] in PBS. For Group 2, TQS-168 was prepared at a concentration of 5.0 mg/mL as a solution in 10 polyethylene glycol (PEG) 400|30 Kleptose (Roquete)|60% water. […] Plasma concentrations of TQS-168 and TQS-621 were measured overtime.
property_label: concentration at 4 h

> print(dat)
                 smiles.representation  value.observed
1  CC(C)(C)c1ccc(-c2nc3ccccc3[nH]2)cc1      1330 ng/mL

* * *

- procedure_summary: Plasma concentrations of TQS-168 and TQS-621 after single oral dose 50 mg/kg in mice, three formulations
- Format: in vivo
- experimental_parameters: male, C57BL/6, mouse, plasma, po, 50 mg/kg, mice, 50 mg/kg p.o., Group 2 (solution, PEG 400/Kleptose/water), 0.25 hr, mean; read-out: Calculated Concentration in plasma
property_label: concentration at 0.25 h (ng/mL)

> print(dat)
                                   compound           property.label  readout.unit  value.observed
1  CC(C)(C)c1ccc(-c2nc3ccccc3[nH]2)cc1 [TQS-168, 2-(4-tert-butylphenyl)-1H-benzimidazole]  concentration at 0.25 h         ng/mL             900

* * *

- procedure_summary: Plasma and brain concentrations after single oral dose 45 mg/kg in mice
- Type: in vivo
- experimental_parameters: mouse, brain, po, 45 mg/kg, mice, 45 mg/kg p.o.; read-out: Brain-to-plasma AUC ratio
property_label: Kp

> print(dat)
                 smiles.representation  value.observed
1  CC(C)(C)c1ccc(-c2nc3ccccc3[nH]2)cc1            1.81

* * *

- procedure_summary: Tissue concentrations (plasma, brain, liver) after single oral dose 25 mg/kg in mice
- Type: in vivo
- experimental_parameters: male, C57BL6/J, mouse, brain, po, 25 mg/kg, 25 mg/kg p.o., 0.0 minutes, average, read-out: concentration in brain
property_label: concentration at 0 min (ng/mL)

> print(dat)
                 smiles.representation  value.observed
1  CC(C)(C)c1ccc(-c2nc3ccccc3[nH]2)cc1            12.6

* * *

- procedure_summary: Plasma concentrations of TQS-168 and TQS-621 after single oral dose 50 mg/kg in mice, three formulations
- Assay type: in vivo
- experimental_parameters: male, C57BL/6, mouse, plasma, po, 50 mg/kg, mice plasma, TQS-168 50 mg/kg p.o., Group 3 (suspension, Labrafil/Masine/Miglyol/water), mean; read-out: tmax
The reader will find reported Tmax values listed item by item below.
property_label: Tmax (h)

> print(dat)
                    smiles.representation  property.label  value.observed
1  CC(C)(C)c1ccc(-c2nc3cc(O)ccc3[nH]2)cc1            Tmax            3.33
2     CC(C)(C)c1ccc(-c2nc3ccccc3[nH]2)cc1            Tmax            3.17

* * *

- procedure_summary: Phase 1 single ascending dose (SAD) trial, plasma pharmacokinetics (Part 1)
- experimental_parameters: male, human, in vivo, po, 90 mg, AUC(0-24), human plasma; Regimen F: 90 mg TQS-168 SDD oral suspension, fed (high fat breakfast), single dose; geometric mean
property_label: AUC(0-t) (ng·h/mL)

> print(dat)
                 smiles.representation  value.observed
1  CC(C)(C)c1ccc(-c2nc3ccccc3[nH]2)cc1             168
